All values here come from patent US9802937B2.

Target: SYK kinase (Homo sapiens, UniProt P43405)
observed.property: Ki

I am curious: what Ki value has been reported for CN(C)Cc1ccc(Nc2nc(-c3ccccc3)nc3cn[nH]c23)cc1 [Example #120] ?
10 to 100 nM

Requested field: Ki. Item: CN1CCC(CNc2nc(C(=O)c3ccccc3)nc3cn[nH]c23)CC1 [Example #151]
< 10 nM

Recorded Ki of COc1ccc(Nc2nc(-c3nc4ccccc4n3C)nc3cn[nH]c23)cc1OC [Example #130] , please.
100 to 1000 nM

May I ask what Ki has been recorded for c1cc(N2CCOCC2)ccc1Nc1nc(-c2ccc3c(c2)NCCO3)nc2cn[nH]c12 [Example #301] ?
10 to 100 nM

---

Target: LRRK2 (Homo sapiens)
Assay: LRRK2-LRRK2 G2019S-Assay (LanthaScreen Eu Kinase Binding Assay)
Conditions: 5 nM LRRK2 or their mutants, 10 nM tracer 236, RT 1 h; read-out: LRRK2 Activities: IC50
pIC50: −log10 of the molar value.
Catalogue of pIC50 readings, one per entry.

As a guide, the following entries are already answered.
O=S1(=O)CCN(c2ccc(Nc3nc(-c4ccsc4)nc4cn[nH]c34)cc2)CC1
7.00 to 8.00
Fc1ccccc1-c1nc(Nc2ccc(N3CCN(C4CC4)CC3)cc2)c2[nH]ncc2n1
6.00 to 7.00
CN1CCN(C2CCN(C(=O)c3ccc(Nc4nc(-c5cccs5)nc5cn[nH]c45)cc3)CC2)CC1
7.00 to 8.00
COc1ccc(-c2nc(Nc3ccc4cn[nH]c4c3)c3[nH]ncc3n2)cc1
7.00 to 8.00
COc1ccc(-c2nc(Nc3ccc(N4CCOCC4)cc3)c3[nH]ncc3n2)cc1OC
6.00 to 7.00

Param item = `CN1CCN(c2ccc(Nc3nc(-c4nc5ccccc5s4)nc4cn[nH]c34)cc2)CC1` ; retrieve measured pIC50.
7.00 to 8.00

Please give the measured pIC50 for this compound: `Fc1ccc(-c2nc(Nc3ccc(N4CCOCC4)cc3)c3[nH]ncc3n2)cc1`
6.00 to 7.00

Consider the compound `O=C1CCCc2ccc(Nc3nc(-c4cccc(C(=O)O)c4)nc4cn[nH]c34)cc2N1` and give its measured pIC50.
6.00 to 7.00

Returns the measured pIC50 for the input compound. Input: `c1csc(-c2nc(Nc3ccc(CN4CCOCC4)cc3)c3[nH]ncc3n2)c1`
6.00 to 7.00

For the compound shown here, `c1csc(-c2nc(Nc3ccc(N4CCOCC4)cc3)c3[nH]ncc3n2)c1` , give the reported pIC50.
7.00 to 8.00

Entry `CN1CCN(C2CCN(c3ccc(Nc4nc(-c5cccs5)nc5cn[nH]c45)cc3)CC2)CC1` : reported pIC50 = ?
6.00 to 7.00

Given the compound `CN1CCN(c2ccc(Nc3nc(-c4cocn4)nc4cn[nH]c34)cc2)CC1` , what is its reported pIC50?
6.00 to 7.00

Requested read-out: pIC50. Entry: `c1csc(-c2nc(Nc3ccc4cn[nH]c4c3)c3[nH]ncc3n2)c1`
> 8.00

pIC50 lookup needed for `c1ccc(-c2nc(Nc3ccc4cn[nH]c4c3)c3[nH]ncc3n2)cc1` , thanks.
> 8.00

# query: pIC50 of entry `O=C1COc2ccc(Nc3nc(-c4ccncc4)nc4cn[nH]c34)cc2N1`
6.00 to 7.00

Item under review: `O=C1CCc2ccc(Nc3nc(-c4cnc5cc[nH]c5c4)nc4cn[nH]c34)cc2N1` . Reported pIC50?
6.00 to 7.00

I am curious: what pIC50 value has been reported for `Fc1cc(Nc2nc(-c3cccs3)nc3cn[nH]c23)ccc1N1CCOCC1` ?
6.00 to 7.00

---

pKi: −log10 of the molar value.
Record: pKi reported on UniProtKB P43405.

Consider the worked cases shown below.
CN1CCN(c2ccc(Nc3nc(-c4ccc(N5CCCC5)nc4)nc4cn[nH]c34)cc2)CC1
> 8.00
COc1ccc(OC)c(-c2nc(Nc3ccc(N4CCN(C5CC5)CC4)cc3)c3[nH]ncc3n2)c1
7.00 to 8.00

Record request: pKi value, item `COc1ccc(Nc2nc(C3CCN(C)CC3)nc3cn[nH]c23)cc1OC`
7.00 to 8.00

What measured pKi goes with `c1cncc(-c2cccc(-c3nc(Nc4ccc(N5CCOCC5)cc4)c4[nH]ncc4n3)c2)c1` ?
7.00 to 8.00

Recorded pKi of `CN1CCC(c2nc(Nc3ccc(N4CCN(C)CC4)cc3)c3[nH]ncc3n2)CC1` , please.
7.00 to 8.00

Consider the compound shown here: `CC(=O)N1CCN(c2ccc(Nc3nc(-c4cccs4)nc4cn[nH]c34)cc2)CC1` What is its recorded pKi?
> 8.00

What value of measured pKi is listed for `COc1ccccc1-c1nc(Nc2ccc(N3CCN(C)CC3)cc2)c2[nH]ncc2n1` ?
7.00 to 8.00

Quick one: pKi of `CN1CCN(c2ccc(Nc3nc(-c4ccccc4)nc4cn[nH]c34)cc2)CC1` ?
> 8.00

---

Molecular target: LRRK2 (Homo sapiens)
Experiment: LRRK2-LRRK2 G2019S-Assay (LanthaScreen Eu Kinase Binding Assay)
Conditions: 5 nM LRRK2 or their mutants, 10 nM tracer 236, RT 1 h; read-out: LRRK2 Activities: IC50
pIC50: −log10 of the molar value.
observed.property: pIC50

For the compound shown here, `Oc1cccc(Nc2nc(-c3ccsc3)nc3cn[nH]c23)c1` , give the reported pIC50.
6.00 to 7.00

Param item = `COc1ccc(Nc2nc(-c3cscn3)nc3cn[nH]c23)cc1OC` ; retrieve measured pIC50.
7.00 to 8.00

Form field: reported pIC50 of `CN1CCN(c2ccc(Nc3nc(-c4nccs4)nc4cn[nH]c34)cc2)CC1`
6.00 to 7.00

---

# SYK kinase (Homo sapiens, UniProt P43405): Ki values follow

COc1ccc(Nc2nc(-c3ccccc3)nc3cn[nH]c23)cc1OC
< 10 nM

Returns the measured Ki for the input compound. Input: `CN(C)Cc1cccc(Nc2nc(-c3ccccc3F)nc3cn[nH]c23)c1`
100 to 1000 nM

Endpoint output: Ki of `COc1cc(C(=O)N2CCC(N3CCN(C)CC3)CC2)ccc1Nc1nc(-c2cccs2)nc2cn[nH]c12` . Value?
10 to 100 nM

Could you tell me which Ki is on file for `c1cc(N2CCOCC2)ccc1Nc1nc(-c2ccc(N3CCCC3)nc2)nc2cn[nH]c12` ?
< 10 nM

Look up Ki for this compound: `CN1CCN(c2ccc(Nc3nc(-c4nccs4)nc4cn[nH]c34)cc2)CC1`
< 10 nM

Dear colleague, I am looking for the recorded Ki of the following compound: `COc1ccc(-c2nc(Nc3cccc(O)c3)c3[nH]ncc3n2)cc1`
10 to 100 nM

For the compound shown here, `c1cncc(-c2cccc(-c3nc(Nc4cc(C5CC5)[nH]n4)c4[nH]ncc4n3)c2)c1` , give the reported Ki.
10 to 100 nM

Reported Ki, compound `CN1CCN(c2ccc(Nc3nc(-c4ncco4)nc4cn[nH]c34)cc2)CC1` : ____
< 10 nM

---

Recorded IC50 for the following compounds
Molecular target: LRRK2 (Homo sapiens, UniProt Q5S007)
Sequence (Q5S007 970-2527 limits assumed): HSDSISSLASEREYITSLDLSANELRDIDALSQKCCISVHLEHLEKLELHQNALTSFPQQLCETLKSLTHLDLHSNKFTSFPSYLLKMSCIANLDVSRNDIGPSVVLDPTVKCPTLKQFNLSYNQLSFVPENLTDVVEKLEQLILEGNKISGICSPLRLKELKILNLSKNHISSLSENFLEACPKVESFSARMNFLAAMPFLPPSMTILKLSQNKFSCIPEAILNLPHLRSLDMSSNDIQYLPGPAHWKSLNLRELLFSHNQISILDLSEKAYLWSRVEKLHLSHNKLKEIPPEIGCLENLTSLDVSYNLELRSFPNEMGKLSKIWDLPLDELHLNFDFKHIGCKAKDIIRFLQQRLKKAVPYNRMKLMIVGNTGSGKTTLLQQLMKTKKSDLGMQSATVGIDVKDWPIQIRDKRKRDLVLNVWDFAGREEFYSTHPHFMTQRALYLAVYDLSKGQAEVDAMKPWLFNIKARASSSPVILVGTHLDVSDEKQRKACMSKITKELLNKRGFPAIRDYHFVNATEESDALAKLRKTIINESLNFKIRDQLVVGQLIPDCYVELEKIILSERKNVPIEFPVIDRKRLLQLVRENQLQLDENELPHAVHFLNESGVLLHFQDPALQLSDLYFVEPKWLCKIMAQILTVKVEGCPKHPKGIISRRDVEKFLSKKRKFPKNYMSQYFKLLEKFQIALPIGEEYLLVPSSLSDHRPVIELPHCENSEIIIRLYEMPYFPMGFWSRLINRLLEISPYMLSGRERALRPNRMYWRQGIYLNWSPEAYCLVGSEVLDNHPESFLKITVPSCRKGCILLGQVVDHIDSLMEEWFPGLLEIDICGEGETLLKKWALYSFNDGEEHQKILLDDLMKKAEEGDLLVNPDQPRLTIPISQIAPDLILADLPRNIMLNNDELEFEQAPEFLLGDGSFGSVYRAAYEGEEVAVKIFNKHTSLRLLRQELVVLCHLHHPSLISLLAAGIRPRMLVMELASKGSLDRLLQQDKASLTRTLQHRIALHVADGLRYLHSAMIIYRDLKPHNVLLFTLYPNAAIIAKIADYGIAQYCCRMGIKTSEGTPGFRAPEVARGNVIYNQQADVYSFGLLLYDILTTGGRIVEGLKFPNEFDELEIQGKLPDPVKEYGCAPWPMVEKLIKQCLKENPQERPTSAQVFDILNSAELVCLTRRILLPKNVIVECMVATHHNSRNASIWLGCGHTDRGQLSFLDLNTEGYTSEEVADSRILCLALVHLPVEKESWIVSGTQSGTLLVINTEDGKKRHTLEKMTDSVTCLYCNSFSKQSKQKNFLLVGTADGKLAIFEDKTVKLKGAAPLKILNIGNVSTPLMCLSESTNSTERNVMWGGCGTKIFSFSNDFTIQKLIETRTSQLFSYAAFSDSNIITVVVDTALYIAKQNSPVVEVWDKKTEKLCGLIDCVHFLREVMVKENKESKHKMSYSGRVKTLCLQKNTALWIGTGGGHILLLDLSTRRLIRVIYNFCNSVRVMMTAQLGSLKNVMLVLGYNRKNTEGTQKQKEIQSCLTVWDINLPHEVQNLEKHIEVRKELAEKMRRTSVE
Assay: LRRK2-LRRK2 G2019S-Assay (LanthaScreen Eu Kinase Binding Assay)
Conditions: 5 nM LRRK2 or their mutants, 10 nM tracer 236, RT 1 h; read-out: LRRK2 Activities: IC50

c1cc(N2CCOCC2)ccc1Nc1nc(-c2ccc3cn[nH]c3c2)nc2cn[nH]c12
< 10 nM
O=C1CCc2ccc(Nc3nc(-c4cscn4)nc4cn[nH]c34)cc2N1
10 to 100 nM
CN1CCC(c2nc(Nc3ccc4c(c3)NCCO4)c3[nH]ncc3n2)CC1
100 to 1000 nM

Now look at this entry.
What value of measured IC50 is listed for `COc1ccccc1-c1nc(Nc2ccc(N3CCN(C)CC3)cc2)c2[nH]ncc2n1` ?
100 to 1000 nM

---

The entries below are paired with their reported pIC50.
Biological target: LRRK2 (Homo sapiens)
Test: LRRK2-LRRK2 G2019S-Assay (LanthaScreen Eu Kinase Binding Assay)
Conditions: 5 nM LRRK2 or their mutants, 10 nM tracer 236, RT 1 h; read-out: LRRK2 Activities: IC50
pIC50: −log10 of the molar value.

Example cases with answers are listed next.
O=C(O)c1cccc(-c2nc(Nc3ccc(N4CCOCC4)cc3)c3[nH]ncc3n2)c1 [Example #156]
6.00 to 7.00
COc1ccc(-c2nc(Nc3cc(C4CC4)[nH]n3)c3[nH]ncc3n2)cc1 [Example #86]
6.00 to 7.00
COc1ccc(Nc2nc(-c3ncco3)nc3cn[nH]c23)cc1OC [Example #205]
6.00 to 7.00

Query molecule follows.
What value of pIC50 has been recorded for this entry: COc1ccc(-c2nc(Nc3ccc(N4CCN(C)CC4)cc3)c3[nH]ncc3n2)cc1OC [Example #34]
6.00 to 7.00
